Target: α4 integrin on the surface of T cells (Homo sapiens, UniProt P13612)
Test: flow cytometry on cells
measurementType: binding result

1) NZM variant var2 (light chain CDR2 modified), full human IgG4 (antibody, V domains shown) VH: QVQLVQSGAEVKKPGASVKVSCKASGFNIKDTYIHWVRQAPGQRLEWMGRIDPANGYTKYDPKFQGRVTITADTSASTAYMELSSLRSEDTAVYYCAREGYYGNYGVYAMDYWGQGTLVTVSS VL: DIQMTQSPSSLSASVGDRVTITCKTSQDINKYMAWYQQTPGKAPRLLIHYTKGNQSGIPSRFSGSGSGRDYTFTISSLQPEDIATYYCLQYDNLWTFGQGTKVEIK; binds
2) NZM variant var3 (light chain CDR2 modified), full human IgG4 (antibody, V domains shown) VH: QVQLVQSGAEVKKPGASVKVSCKASGFNIKDTYIHWVRQAPGQRLEWMGRIDPANGYTKYDPKFQGRVTITADTSASTAYMELSSLRSEDTAVYYCAREGYYGNYGVYAMDYWGQGTLVTVSS VL: DIQMTQSPSSLSASVGDRVTITCKTSQDINKYMAWYQQTPGKAPRLLIHYTKSNQPGIPSRFSGSGSGRDYTFTISSLQPEDIATYYCLQYDNLWTFGQGTKVEIK; binds
